B1: POU domain, class 2, transcription factor 2, residues 200 to 269; numbered along this chain, P09086 (parent)
chain: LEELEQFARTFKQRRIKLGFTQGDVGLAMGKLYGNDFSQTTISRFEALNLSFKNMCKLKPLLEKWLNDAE

Variants of: B1
Assay: abundance fitness (aPCA) (normalised: wild type 0, dead -1); higher = more abundant; growth selection in yeast, the domain comes from the species named
Conditions: Homo sapiens
Give abundance fitness for every item shown.
Answers are plain numbers.

Below: 6 variants and their reported abundance fitness.
Looking up `I16Q` , I found its abundance fitness recorded as -0.013

response.value for `E70F` (field: abundance fitness) = -0.2

Recorded abundance fitness (variant `L50I` ): -0.039

Recorded abundance fitness (variant `G19N` ): -0.022

Entry `E2N` ; abundance fitness = 0.259

So, `Q39R` ? Its abundance fitness was -0.019

Dear colleague, could you send me abundance fitness for each of the items below? Thanks.
1. T40C
2. M29P
3. E5N
4. L1F
5. F7D
6. V25G
7. F11G
8. P60G

1: -0.038; 2: -0.664; 3: -0.224; 4: -0.028; 5: -0.595; 6: -1.05; 7: -0.789; 8: -0.016
